Parameter: PBM binding z-score. Scope: all listed entries.
- Test system: PXR homodimer (NR concentration 270 nM)
- PROTOCOL TEXT: PBM binding z-score (relative to random genomic background probes); higher = stronger binding; sequences stand for … in GC…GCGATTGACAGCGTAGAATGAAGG
Write no unit; give the number alone.

Below are worked cases with known answers.
• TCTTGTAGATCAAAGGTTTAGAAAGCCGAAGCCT = -0.198
• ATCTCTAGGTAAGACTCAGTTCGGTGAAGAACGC = 0.754
• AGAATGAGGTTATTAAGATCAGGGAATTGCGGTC = 0.762
• CCTGCTAGGCCATGGTCAGCTAATCTACAGTATG = -0.705
• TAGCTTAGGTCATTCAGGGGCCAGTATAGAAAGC = 0.636

Lab note: next sequence to report on.
Value lookup for PBM binding z-score; key = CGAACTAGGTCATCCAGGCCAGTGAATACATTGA
0.572

----------
- Tested on: PPARg DBDmut:RXRa IVT, anti-PPARg (DBD mutation: PPARg1 K132A/R137A, NR concentration 270 nM, RXRa partner concentration 90 nM)
- PROTOCOL TEXT: PBM binding z-score (relative to random genomic background probes); higher = stronger binding; sequences stand for … in GC…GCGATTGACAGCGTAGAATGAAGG
# maps each entry to its PBM binding z-score

Examples from the recorded data:
• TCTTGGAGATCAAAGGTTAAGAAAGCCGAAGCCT = -0.186
• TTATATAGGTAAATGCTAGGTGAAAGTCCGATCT = 1.86
• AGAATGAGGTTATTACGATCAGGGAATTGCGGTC = 1.02
• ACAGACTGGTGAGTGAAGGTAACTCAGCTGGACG = -0.15
• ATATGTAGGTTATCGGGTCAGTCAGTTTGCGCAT = 4.15

Fill in the blank: the reported PBM binding z-score of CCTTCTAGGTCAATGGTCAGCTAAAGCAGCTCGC is ____.
0.00752

----------
- System: RARb homodimer (NR concentration 270 nM)
- PROTOCOL TEXT: PBM binding z-score (relative to random genomic background probes); higher = stronger binding; sequences stand for … in GC…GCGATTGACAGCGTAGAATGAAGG
Quick rule for you: PBM binding z-score at 3 or higher means yes, lower means no.

Here's what some known entries look like.
- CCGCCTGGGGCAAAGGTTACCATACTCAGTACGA: no
- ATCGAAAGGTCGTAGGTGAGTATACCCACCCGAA: no
- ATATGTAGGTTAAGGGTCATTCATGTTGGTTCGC: yes
- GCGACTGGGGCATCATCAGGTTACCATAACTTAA: no
- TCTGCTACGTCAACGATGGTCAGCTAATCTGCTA: no
- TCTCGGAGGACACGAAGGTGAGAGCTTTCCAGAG: no
- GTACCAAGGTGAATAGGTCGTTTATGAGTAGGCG: no
- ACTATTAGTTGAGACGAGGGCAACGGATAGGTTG: no
- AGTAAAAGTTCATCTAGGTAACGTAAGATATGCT: yes
- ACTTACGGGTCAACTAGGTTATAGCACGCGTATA: yes

Decide: PBM binding z-score of TAGCCTAGGTCATGGGCCAGGATACCACGCGAAC >= 3?
no
